Values compiled from PubChem BioAssay AID1069.

procedure-details: LNCaP granularity increase inducers, single-point recheck – cell-based, side scatter shift, flow cytometry, confirmation (AID 1069);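 also: LNCaP human prostate cancer cells in low-serum medium with charcoal-stripped FBS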
test-context: LNCaP differentiation, 4 d, side scatter shift, at 10 µM, stronger effect = higher value
The threshold is inclusive: side scatter shift of exactly 10% counts as y; values below receive n.

Reference set (4 entries):
molecule | class-name
Cc1cc(OCC(=O)O)c2c3c(c(=O)oc2c1)CCCC3 | n
O=C(COc1ccc2ccccc2c1)N1CCN(C2CCN(Cc3ccccc3)CC2)CC1 | n
Clc1ccc(COC(Cn2ccnc2)c2ccc(Cl)cc2Cl)cc1 (stereo not given) | n
Cc1ccc2c(c1)[C@@H]1CN(C)CC[C@@H]1N2C(=O)Nc1cccc(C(F)(F)F)c1 | y

Prompt line: Hi, just wondering whether C[C@H]1CCC/C=C/C2C[C@H](O)CC2[C@H](O)/C=C/C(=O)O1 (stereo not given in full) shows side scatter shift of 10% or higher.
Response line: n
